# credit: DBAASP

Test system: Enterococcus faecalis
What MIC was measured for each of the following?

Worked cases, answers included:
{"compound": "CC[C@H](C)[C@H](NC(=O)[C@H](Cc1ccccc1)NC(=O)[C@H](Cc1cnc[nH]1)NC(=O)[C@H](CCCCN)NC(=O)[C@@H](NC(=O)[C@@H](N)Cc1ccccc1)[C@@H](C)CC)C(=O)N[C@@H](Cc1cnc[nH]1)C(=O)N[C@@H](CCCN=C(N)N)C(=O)N[C@@H](Cc1ccccc1)C(N)=O", "MIC": "≥ 402 µM"}
{"compound": "NC(=O)CC[C@H](NC(=O)[C@H](Cc1c[nH]c2ccccc12)NC(=O)[C@H](Cc1c[nH]c2ccccc12)NC(=O)[C@H](CC(N)=O)NC(=O)[C@H](Cc1ccc(O)cc1)NC(=O)[C@H](Cc1c[nH]c2ccccc12)NC(=O)[C@@H](N)Cc1c[nH]c2ccccc12)C(=O)N[C@@H](CC(=O)O)C(=O)N[C@@H](Cc1c[nH]c2ccccc12)C(N)=O", "MIC": "≥ 340 µM"}
{"compound": "CC[C@H](C)[C@H](NC(=O)[C@H](C)NC(=O)[C@H](CC(C)C)NC(=O)[C@H](CS)NC(=O)[C@H](Cc1cnc[nH]1)NC(=O)[C@H](C)NC(=O)[C@H](C)N)C(=O)NCC(=O)N[C@@H](CCCN=C(N)N)C(=O)N[C@@H](CCCCN)C(N)=O [AAHCLAIGRK]", "MIC": "15 µM"}
{"compound": "CC[C@H](C)[C@H](NC(=O)[C@H](C)NC(=O)[C@H](CC(C)C)NC(=O)[C@H](CS)NC(=O)[C@H](Cc1cnc[nH]1)NC(=O)[C@H](C)NC(=O)[C@H](C)N)C(=O)NCC(=O)N[C@@H](CCCN=C(N)N)C(=O)N[C@@H](CCCN=C(N)N)C(N)=O [AAHCLAIGRR]", "MIC": "15 µM"}
{"compound": "CC[C@H](C)[C@H](N)C(=O)N[C@@H](CC(C)C)C(=O)N[C@@H](CCCCN)C(=O)N[C@@H](CCCCN)C(=O)N[C@@H](Cc1c[nH]c2ccccc12)C(=O)N1CCC[C@H]1C(=O)N[C@@H](Cc1c[nH]c2ccccc12)C(=O)N[C@@H](Cc1c[nH]c2ccccc12)C(=O)N1CCC[C@H]1C(=O)N[C@@H](Cc1c[nH]c2ccccc12)C(=O)N[C@@H](CCCN=C(N)N)C(=O)N[C@@H](CCCN=C(N)N)C(=O)N[C@@H](CCCCN)C(N)=O", "MIC": "≥ 34 µM"}

Okay, here is my list. What is MIC for each of these?
1. CC(C)C[C@H](NC(=O)[C@H](CS)NC(=O)[C@H](CCCCN)NC(=O)[C@H](C)NC(=O)[C@H](C)N)C(=O)N[C@H](C(=O)N[C@@H](CCC(N)=O)C(=O)N[C@@H](CCCN=C(N)N)C(=O)N[C@@H](CCCN=C(N)N)C(=O)N[C@@H](CCCN=C(N)N)C(N)=O)C(C)C
2. CSCC[C@H](NC(=O)[C@H](CC(N)=O)NC(=O)[C@@H]1CCCN1C(=O)[C@@H]1CCCN1C(=O)[C@H](CCCNC(=N)N)NC(=O)[C@@H]1CCCN1C(=O)[C@H](CCCNC(=N)N)NC(=O)[C@@H]1CCCN1C(=O)[C@H](CCCNC(=N)N)NC(=O)[C@H](Cc1ccc(O)cc1)NC(=O)[C@H](CC(=O)O)NC(=O)[C@@H]1CCCN1C(=O)[C@H](CCCCN)NC(=O)[C@H](CC(=O)O)NC(=O)[C@@H](N)C(C)C)C(=O)O

["30 µM", "≥ 200 µM"]
